# Target Of Assay: T1, COX14 peptide complexed with HLA-A*02:01 on T2 cells (human)
# T1 construct: whole, on cells
# Test Summary: flow cytometry, peptide-loaded T2 cells;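 note: binding of single-chain Fv antibody constructs, raised in XenoMouse, to peptide-pulsed T2 cells measured by flow cytometry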
Quick reference for Signal/background among some binders
Number only, please.

Consider the reported Signal/background for these binders:
Binder | Reported Value
18182-G8 (scFv, scFv in bacterial lysate, detected with anti-Flag M2) scFv: EVQLLESGGGLVKPGGSLRLSCAASGFTFSSYAMNWVRQAPGKGLEWVSAISGSGGGTYYADSGKGRFTISRDNSKNTLYLQMNSLRAEDTAVYYCATGKGVHLNFDYWGQGTLVTVSSGGGGSGGGGSGGGGSELVLTQPPSVSVAPGQTARITCGGNNIGSKSVHWYQQKPGQAPVMVVYDDNDRPSGIPERFSGSNSGNTATLTISRVEAGDEADYYCQVWDSSSDHVVFGGGTKLTVL | 0.9
18081-B9 (scFv, scFv in bacterial lysate, detected with anti-Flag M2) scFv: EVQLLESGPGLVKPSETLSLTCTVSGDSISSSRYYWGWIRQPPGKGLEWIGSIYYSGSTYYNPSLKSRVTISVDTSKNQFSLKLSSVTAADTAVYYCARGIFGVITYFDYWGQGTLVTVSSGGGGSGGGGSGGGGSELVMTQSPDSLAVSLGERATINCKSSQSVLYSSNNKNYLAWYQQKPGQPPKLLIYWASTRESGVPDRFSGSGSGTDFTLTISSLQAEDVAVYYCQQFYSTPITFGQGTRLEIK | 1
18081-E7 (scFv, scFv in bacterial lysate, detected with anti-Flag M2) scFv: EVQLLESGPGLVKPSETLSLTCTVSGDSISSSRYYWGWIRQPPGKGLEWIGSIYYSGSTYYNPSLKSRVTISVDTSKNQFSLKLSSVTAADTAVYYCARGIFGVITYFDYWGQGTLVTVSSGGGGSGGGGSGGGGSELVMTQTPDSLAVSLGERATINCKSSQSVLYSSNNKNYLAWYQQKPGQPPKLLIYWASTRESGVPDRFSGSGSGTDFTLTISSLQAEDVAVYYCQQYYSTPLTFGGGTKVEIK | 1.1
18089-B2 (scFv, scFv in bacterial lysate, detected with anti-Flag M2) scFv: EVQLLESGGGLVQPGGSLRLSCAASGFTFSSYAMSWVRQAPGRGLEWVSTISISGGSTNYADSVKGRFTISRDNSKNTLYLQMNSLRAEDTAVYYCAKDGGSGWFPKLLHYGLDVWGQGTTVTVSSGGGGSGGGGSGGGGSELQMTQSPSSLSASVGDRVTITCQASQDISNYLNWYQQKPGKAPKLLIYAASSLQSGVPSRFSGSGSGTDFTLTISSLQPEDFATYYCQQSYSIPLTFGGGTKVEIK | 0.9
18182-B12 (scFv, scFv in bacterial lysate, detected with anti-Flag M2) scFv: EVQLLESGGGLVQPGGSLRLSCAASGFTFSSYAMSWVRQAPGKGLEWVSAISGSGGGTYYADSVKGRFTISRDNSKNTLYLQMSSLRAEDTAVYYCATGKGVHLGFDYWGQGTLVTVSSGGGGSGGGGSGGGGSELVLTQPPSVSVAPGQTARITCGGNNIGSKSVHWHQQKPGQAPVLVVYDDNDRPSGIPERFSGSNSGNTATLTISRVEAGDEADYYCQVWDYSSDHVVFGGGTKLTVL | 1
18081-H11 (scFv, scFv in bacterial lysate, detected with anti-Flag M2) scFv: EVQLLESGPALVKPTQTLTLTCTFSGFSFTTHKMGVDWIRQPPGKALEWLALIYWNDDKRYSPSLQSRLTITKDTSKNQVVLTMTNMDPVDTATYYCAYRRYNWNYENWFDPWGQGTLVTVSSGGGGSGGGGSGGGGSELQMTQSPSSLSASVGDRVTITCQASQDISNYLNWYQQKPGKAPKLLIYAASSLQSGVPSRFSGSGSGTDFTLTISSLQPEDFATYYCQQSYTTPFTFGPGTKVEIK | 1

Query: Signal/background; subject: 18182-E5 (scFv, scFv in bacterial lysate, detected with anti-Flag M2) scFv: EVQLLESGGGLVQPGGSLRLSCAASGFTFSSYAMSWVRQAPGKGLEWVSTISGSGGGTYYADSVKGRFTISRDNSKNTLYLQMNSLRAEDTAVYYCATGKGVHLGFDYWGQGTLVTVSSGGGGSGGGGSGGGGSELVLTQPPSVSVAPGQTARITCGGNNIGSKSVHWHQQKPGQAPVLVVYDDNDRPSGIPERFSGSNSGNTATLTISRVEAGDEADYYCQVWDYSSDHVVFGGGTKLTVL 0.9

// query Signal/background value for entry 18182-E6 (scFv, scFv in bacterial lysate, detected with anti-Flag M2) scFv: EVQLLESGGGLVQPGGSLRLSCAASGFTFSSYAMSWVRQAPGKGLEWVSAISGSGGGTYYADSVKGRFTISRDNSKNTLYLQMNSLRAEDTAVYYCATGKGVHLNFDYWGQGTLVTVSSGGGGSGGGGSGGGGSELVLTQPSSVSVAPGQTARITCGGNNIGSKSVHWYQQKPGQAPVLVVYDDNDRPSGIPERFSGSNFGNTATLIISRVAAGDEADYYCQVWDSSSDHVVFGGGTKLTVL 1

// lookup Signal/background for 18182-G2 (scFv, scFv in bacterial lysate, detected with anti-Flag M2) scFv: EVQLLESGGGLVQPGGSLRLSCAASGFTFSSHAMSWVRQAPGKGLEWVSAISGSGGGTYNADSVKGRFTISRDNSKNTLYLQMNSLRAEDTAAYYCVTGKGVHLGFDYWGQGTLVTVSSGGGGSGGGGSGGGGSELVLTQPPSVSVAPGQTARITCGGNNIGSKSVHWYQQKPGQAPVMVVYDDNDRPSGIPERFSGSNSGNTATLTISRVEAGDEADYYCQVWDSSSDHVIFGGGTKLTVL 0.9

Need Signal/background of 18181-C9 (scFv, scFv in bacterial lysate, detected with anti-Flag M2) scFv: EVQLLESGPGLVKPSQTLSLTCTVSGDSISSNPYYWSWIRQLPGKGLEWIGYISYSGSTFYNPSLKSRVTISVDTSKNQFSLNLTSVTAADTAVYYCARDRLWFGVLNYYYGMDVWGLGTTVTVSSGGGGSGGGGSGGGGSELVLTQSPLSLPVTPGEPASISCRSSQSLLHRNGYNYLDWYLQKPGQSPQLLIYLGSNRASGVPDRFSGSGSGTDFTLKISRVEAEDVGVYYCMQGLQTPFTFGPGTKVEIK , thanks. 0.9

Origin of measurements: patent US20220017636A1
